- targetEntity: T1, recombinant human sirtuin 2 (His6-SIRT2) (human, UniProt Q8IXJ6 1-389)
- T1 chain: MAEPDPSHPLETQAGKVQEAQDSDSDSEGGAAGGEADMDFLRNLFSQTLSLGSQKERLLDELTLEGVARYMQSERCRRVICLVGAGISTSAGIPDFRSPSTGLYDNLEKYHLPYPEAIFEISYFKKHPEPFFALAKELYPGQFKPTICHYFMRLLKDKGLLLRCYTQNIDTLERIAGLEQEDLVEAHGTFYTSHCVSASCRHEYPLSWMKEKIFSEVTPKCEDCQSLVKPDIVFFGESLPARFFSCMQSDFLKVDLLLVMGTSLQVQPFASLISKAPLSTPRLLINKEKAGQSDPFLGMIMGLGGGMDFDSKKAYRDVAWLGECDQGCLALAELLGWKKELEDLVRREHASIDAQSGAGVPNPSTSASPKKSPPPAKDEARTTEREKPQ
- experimentNotes: deacetylase inhibition
Numbered stars: 1 amine (or outer) side, 2 acyl side, 3 side chain; on linkers, the order of the positions; unused ones are H or OH. Square brackets hold non-standard residues; d marks the D form. thBuK = N^ε-thiobutyryl-lysine, CCCC(=S)NCCCC[C@H](N[*:1])C(=O)[*:2]; Abu = CC[C@H](N)C(=O)O
measuredQuantity: pIC50
Give only the number. pIC50 is defined as minus log10 of concentration in molar units.

binder: Ac-CTV[thBuK]I-NH2 (SMILES CCCC(=S)NCCCC[C@H](NC(=O)[C@@H](NC(=O)[C@@H](NC(=O)[C@H](CS)NC(C)=O)[C@@H](C)O)C(C)C)C(=O)N[C@H](C(N)=O)[C@@H](C)CC) [Ac-S2P04-5 (Ac-CTVXI-NH2)]
measuredValue: 6.72

Look up pIC50 for this binder: H-[Abu]TV[thBuK]I-NH2 (SMILES CCCC(=S)NCCCC[C@H](NC(=O)[C@@H](NC(=O)[C@@H](NC(=O)[C@@H](N)CC)[C@@H](C)O)C(C)C)C(=O)N[C@H](C(N)=O)[C@@H](C)CC) [S2P04 (Abu)-5 (NH2-ZTVXI-NH2, Z is aminobutyric acid)]
6.92

Could you do the same for H-TCTV[thBuK]IG-NH2 (SMILES CCCC(=S)NCCCC[C@H](NC(=O)[C@@H](NC(=O)[C@@H](NC(=O)[C@H](CS)NC(=O)[C@@H](N)[C@@H](C)O)[C@@H](C)O)C(C)C)C(=O)N[C@H](C(=O)NCC(N)=O)[C@@H](C)CC) [S2P04 (NH2-TCTVXIG-NH2), synthesized with N^ε-thiobutyryl-lysine (thBuK) in place of BuK] , please?
7.04

Could you do the same for H-CTV[thBuK]TSL-NH2 (SMILES CCCC(=S)NCCCC[C@H](NC(=O)[C@@H](NC(=O)[C@@H](NC(=O)[C@@H](N)CS)[C@@H](C)O)C(C)C)C(=O)N[C@H](C(=O)N[C@@H](CO)C(=O)N[C@@H](CC(C)C)C(N)=O)[C@@H](C)O) [S2P03 (NH2-CTVXTSL-NH2), synthesized with N^ε-thiobutyryl-lysine (thBuK) in place of BuK] , please?
7.17

Could you do the same for H-CTF[thBuK]VPT-NH2 (SMILES CCCC(=S)NCCCC[C@H](NC(=O)[C@H](Cc1ccccc1)NC(=O)[C@@H](NC(=O)[C@@H](N)CS)[C@@H](C)O)C(=O)N[C@H](C(=O)N1CCC[C@H]1C(=O)N[C@H](C(N)=O)[C@@H](C)O)C(C)C) [S2P07 (NH2-CTFXVPT-NH2), synthesized with N^ε-thiobutyryl-lysine (thBuK) in place of BuK] , please?
7.00
